For each entry below, report its TGI value.
System: IGROV1 ovarian
Assay: NCI tumour cell line growth inhibition, 48 h

Value of TGI reported for the compound CN(Cc1cnc2nc(N)nc(N)c2n1)c1ccc(C(=O)NC(CCC(=O)NCC(P(=O)(O)O)P(=O)(O)O)C(=O)O)cc1 (configuration not stated) is > 100 µM

# TGI of C=C1C(=O)OC2/C=C(\C=O)CC/C=C(\C)C(O)C[C@@H]12 (some centres not stated) = 32.3 µM

Input `O=C(NCCCNCCNC(=O)c1cc(-c2ccccc2)nc2ccccc12)c1cc(-c2ccccc2)nc2ccccc12` . Output TGI: 3.59 µM

# TGI of `O=C(OC[C@H]1O[C@@H](OC(=O)c2cc(O)c(O)c(O)c2)[C@H](OC(=O)c2cc(O)c(O)c(O)c2)[C@@H](OC(=O)c2cc(O)c(O)c(O)c2)[C@@H]1OC(=O)c1cc(O)c(O)c(O)c1)c1cc(O)c(O)c(O)c1` = > 100 µM

Short answer for `O=C1/C(=C2\Sc3c(ccc(Cl)c3Cl)C2=O)Sc2c1ccc(Cl)c2Cl` : TGI was > 100 µM

Just so you know, measured TGI for `CC(C)CNC(=O)Cn1c(-c2ccccc2)cc2ccccc21` came out at > 100 µM

CC(=O)OC1[C@H]2c3cc4c(cc3CN3CCC(=C[C@@H]1O)C23)OCO4 (some centres not stated) has a reported TGI of > 100 µM
